src = patent US12091417B2

- System: A549
- Experimental protocol: MTT cell proliferation test, cytotoxicity on A549 lung cancer cells
- Format: cell-based
- Stated conditions: A549, 72 hrs incubation, read-out: IC50 μmole/L, after 72 hrs incubation time
Measured metric: pIC50
Give bare numbers, as −log10 of the molar value.

CCc1c2c(nc3ccc(O)cc13)-c1cc3c(c(=O)n1[C@@H]2CO)COC(=O)[C@]3(O)CC | 5.18
CCc1c2c(nc3ccc(O)c(CN4CCCC4)c13)-c1cc3c(c(=O)n1C2)COC(=O)C3(O)CC (stereo not drawn) [CC2, reference compound] | 7.08

Now consider a different molecule.
Record CCc1c2c(nc3ccc(O)cc13)-c1cc3c(c(=O)n1C2)COC(=O)[C@]3(O)CC [SN38, 7-ethyl-10-hydroxycamptothecin] , field pIC50: 7.55
